Test system: NB14 (Neuroblastoma);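 also: after 72 h of two-drug dosing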
Assay: Bliss excess, mean over the matrix (fraction); higher = more synergy
Examples of compounds with documented Bliss excess follow.
Response field accepts a number only; no unit should be typed.

Example results:
1) N#Cc1cnc(Nc2cc(NC[C@H]3CNCCO3)c(C(F)(F)F)cn2)cn1 [SRA737] + CCc1c2c(nc3ccc(O)cc13)-c1cc3c(c(=O)n1C2)COC(=O)[C@]3(O)CC [SN-38] (first compound max 10 µM, 7x7, partner max 0.3 µM); -0.0148
2) C=CCn1c(=O)c2cnc(Nc3ccc(N4CCN(C)CC4)cc3)nc2n1-c1cccc(C(C)(C)O)n1 [AZD1775] + CCc1c2c(nc3ccc(O)cc13)-c1cc3c(c(=O)n1C2)COC(=O)[C@]3(O)CC [SN-38] (first compound max 1 µM, partner max 0.3 µM); -0.007
3) CCN(CCO)CCCOc1ccc2c(Nc3cc(CC(=O)Nc4cccc(F)c4)[nH]n3)ncnc2c1 [AZD2811] + O=C(c1cc(Cc2n[nH]c(=O)c3ccccc23)ccc1F)N1CCN(C(=O)C2CC2)CC1 [Olaparib] (first compound max 1 µM, 7x7, partner max 10 µM); -0.0384

Query string: Please list Bliss excess recorded for the compound CC(=O)c1c(C)c2cnc(Nc3ccc(N4CCNCC4)cn3)nc2n(C2CCCC2)c1=O [Palbociclib] + CC1(C)CCC(CN2CCN(c3ccc(C(=O)NS(=O)(=O)c4ccc(NCC5CCOCC5)c([N+](=O)[O-])c4)c(Oc4cnc5[nH]ccc5c4)c3)CC2)=C(c2ccc(Cl)cc2)C1 [Venetoclax] (first compound max 10 µM, 7x7, partner max 1 µM)
Result string: -0.0103

Query string: Specify reported Bliss excess for the compound shown: C[C@@H](Nc1cc(F)cc(F)c1)c1cc(C(=O)N(C)C)cc2c(=O)cc(N3CCOCC3)oc12 [AZD8186] + C1CN(CCC1(C(=O)N[C@@H](CCO)C2=CC=C(C=C2)Cl)N)C3=NC=NC4=C3C=CN4 [AZD5363] (first compound max 10 µM, 7x7, partner max 10 µM)
Result string: -0.0318

====

Tested on: NCI-H747 (Colorectal Carcinoma)
Test: combination Emax (second highest fraction inhibited in the dose matrix, 72 h); higher = more inhibition; extreme values may be limits of the assay
Binary call on combination Emax: Met from 0.7 upward, Not met beneath that.

Example entries and their recorded answers appear below.
1) Cc1c2c(nn1C)CSCc1cc(n(C)n1)CSc1cc(c3ccccc3c1)OCCCc1c(C(=O)O)n(C)c3c-2c(Cl)ccc13 [AZD5991] + C[C@@H](Nc1cc(F)cc(F)c1)c1cc(C(=O)N(C)C)cc2c(=O)cc(N3CCOCC3)oc12 [AZD8186] (first compound max 1 µM, 7x7, partner max 3 µM); Not met
2) CN(CCO)CC[C@H](CSc1ccccc1)Nc1ccc(S(=O)(=O)NC(=O)c2ccc(N3CCC([C@@H](O)c4ccccc4-c4ccc(Cl)cc4)CC3)cc2)cc1S(=O)(=O)C(F)(F)F [AZD4320] + C=CCn1c(=O)c2cnc(Nc3ccc(N4CCN(C)CC4)cc3)nc2n1-c1cccc(C(C)(C)O)n1 [AZD1775] (first compound max 1 µM, partner max 1 µM); Not met
3) COc1nnc2ccc(N3CCC(c4ccc(OCCN5CCN(C)C(=O)[C@H]5C)cc4)CC3)nn12 [AZD5153] + C[C@@H]1COCCN1C2=NC(=NC(=C2)C3(CC3)[S@](=N)(=O)C)C4=C5C=CNC5=NC=C4 [AZD6738] (first compound max 1 µM, 7x7, partner max 10 µM); Met
4) CC(=O)c1c(C)c2cnc(Nc3ccc(N4CCNCC4)cn3)nc2n(C2CCCC2)c1=O [Palbociclib] + Cn1cnc2c(F)c(Nc3ccc(Br)cc3Cl)c(C(=O)NOCCO)cc21 [Selumetinib] (first compound max 10 µM, 7x7, partner max 10 µM); Met
5) COc1cc2ncnc(Nc3ccc(F)c(Cl)c3)c2cc1OCCCN1CCOCC1 [Gefitinib] + CC(C)n1c(=O)n(C)c2cnc3cc(F)c(-c4ccc(OCCCN5CCCCC5)nc4)cc3c21 [AZD1390] (first compound max 10 µM, 7x7, partner max 0.3 µM); Not met

Note: attention shifts to another entry.
Query string: Tell me whether combination Emax is at least 0.7 here: COc1cccc(OCCCN)c1-c1cc(Nc2cnc(C#N)cn2)n[nH]1 [Prexasertib] + CCc1c2c(nc3ccc(O)cc13)-c1cc3c(c(=O)n1C2)COC(=O)[C@]3(O)CC [SN-38] (first compound max 1 µM, 7x7, partner max 0.3 µM)
Result string: Met
